Ok so here's the combined literature set: IC50 for Vascular endothelial growth factor receptor 1 (Homo sapiens, UniProt P17948).

Worked cases, answers included:
[[record]]
structure_string = "O=C(c1ccc(Cl)cc1Cl)c1c[nH]c2ncc(-c3cccnc3)cc12"
measured_endpoint = "IC50"
recorded_result = "≤ 10 µM"

[[record]]
structure_string = "CCCCN(C)C(=O)Nc1ccc(F)c(C(=O)c2c[nH]c3ncc(Cl)cc23)c1F"
measured_endpoint = "IC50"
recorded_result = "≤ 10 µM"

[[record]]
structure_string = "NC(=O)c1cccc(-c2cnc3[nH]ccc3c2)c1"
measured_endpoint = "IC50"
recorded_result = "≤ 10 µM"

[[record]]
structure_string = "CN(C)c1ccc(Nc2cnc3[nH]ccc3c2)cc1"
measured_endpoint = "IC50"
recorded_result = "≤ 10 µM"

[[record]]
structure_string = "COc1ccc(Nc2nc3ccccc3n2-c2ncnc(Nc3cc(OC)c(OC)c(OC)c3)n2)cc1OC"
measured_endpoint = "IC50"
recorded_result = "0.755 to 4.53 µM"


Record COc1cccc(C(=O)c2c[nH]c3ncc(-c4ccsc4)cc23)c1 / Vascular endothelial growth factor receptor 1 (Homo sapiens, UniProt P17948), IC50 recorded as ≤ 10 µM

Record COc1cc(Nc2ncnc(-n3c(Nc4ccc5[nH]ncc5c4)nc4ccccc43)n2)cc(OC)c1OC / Vascular endothelial growth factor receptor 1 (Homo sapiens, UniProt P17948), IC50 recorded as < 0.785 µM

Record CC(C)(C)c1cc(NC(=O)Nc2ccc(Oc3ncnc4[nH]ncc34)cc2)on1 / Vascular endothelial growth factor receptor 1 (Homo sapiens, UniProt P17948), IC50 recorded as < 10 µM

###

Ok so here's the combined literature set: IC50 for Vascular endothelial growth factor receptor 1 (Homo sapiens).

[[record]]
structure_string = "COc1cnc2[nH]cc(C(=O)c3c(F)ccc(OCC(F)(F)F)c3Cl)c2c1"
measured_endpoint = "IC50"
recorded_result = "≤ 10 µM"

[[record]]
structure_string = "COc1cc(Nc2ncnc(-n3c(N)nc4cc(C(F)(F)F)ccc43)n2)cc(OC)c1OC"
measured_endpoint = "IC50"
recorded_result = "0.867 to 5.2 µM"

[[record]]
structure_string = "CCCS(=O)(=O)Nc1ccc(F)c(C(=O)c2c[nH]c3ncc(-c4cncnc4)cc23)c1F"
measured_endpoint = "IC50"
recorded_result = "≤ 10 µM"

[[record]]
structure_string = "COc1cc(Cc2c[nH]c3ncccc23)ccc1OCc1ccccc1"
measured_endpoint = "IC50"
recorded_result = "≤ 10 µM"


Record CCN(CC)c1ccc(Nc2cnc3[nH]ccc3c2)cc1 / Vascular endothelial growth factor receptor 1 (Homo sapiens), IC50 recorded as ≤ 10 µM

###

Ok so here's the combined literature set: IC50 for Vascular endothelial growth factor receptor 1 (Homo sapiens, UniProt P17948).

Worked cases, answers included:
[[record]]
molecule = "Cc1ccc(F)c(NC(=O)Nc2ccc(Oc3ccnc(-c4cc(C(=O)NCCCN5CCCC(CO)C5)c[nH]4)c3)cc2F)c1 (centres unmarked)"
recorded_result = "0.009 µM"

[[record]]
molecule = "COc1ccc(CNc2nc3ccccc3n2-c2ncnc(Nc3cc(OC)c(OC)c(OC)c3)n2)cc1"
recorded_result = "4.67 to 6.82 µM"

[[record]]
molecule = "O=C(c1ccccc1F)c1c[nH]c2ncc(-c3ccsc3)cc12"
recorded_result = "≤ 10 µM"

[[record]]
molecule = "Cc1occc1Sc1c[nH]c2ncccc12"
recorded_result = "≤ 10 µM"

[[record]]
molecule = "Cn1cc(-c2cnc3[nH]cc(Cc4c(F)ccc(OCC(F)(F)F)c4Cl)c3c2)cn1"
recorded_result = "≤ 10 µM"

[[record]]
molecule = "COc1cnc2[nH]cc(C(=O)c3c(F)ccc(NS(=O)(=O)c4ccc(F)cc4)c3F)c2c1"
recorded_result = "≤ 10 µM"


The molecule listed as O=C(c1ccccc1F)c1c[nH]c2ncc(-c3cccnc3)cc12 has a reported IC50 of ≤ 10 µM

The molecule listed as CS(=O)(=O)Nc1cccc(-c2cnc3[nH]cc(C(=O)c4cccc(OC(F)F)c4)c3c2)c1 has a reported IC50 of ≤ 10 µM

###

Ok so here's the combined literature set: pIC50 for Vascular endothelial growth factor receptor 1 (Homo sapiens, UniProt P17948).
pIC50: −log10 of the molar value.

Record O=C(c1cccc(O)c1)c1c[nH]c2ncc(-c3cccs3)cc12 / Vascular endothelial growth factor receptor 1 (Homo sapiens, UniProt P17948), pIC50 recorded as ≥ 5.00

Record FC(F)(F)Oc1ccc(Nc2c[nH]c3ncccc23)cc1 / Vascular endothelial growth factor receptor 1 (Homo sapiens, UniProt P17948), pIC50 recorded as ≥ 5.00

Record COc1cc(Nc2ncnc(-n3cc(CCO)c4ccccc43)n2)cc(OC)c1OC / Vascular endothelial growth factor receptor 1 (Homo sapiens, UniProt P17948), pIC50 recorded as > 6.02

Record NC(=O)c1cccc(-c2cnc3[nH]cc(C(=O)c4ccccc4OCc4ccccc4)c3c2)c1 / Vascular endothelial growth factor receptor 1 (Homo sapiens, UniProt P17948), pIC50 recorded as ≥ 5.00

Record COC(=O)[C@@H]1C[C@@H](O)CN1CCNC(=O)c1c[nH]c(-c2cc(Oc3ccc(NC(=O)Nc4cc(C)ccc4F)cc3)ccn2)c1 (relative stereo) / Vascular endothelial growth factor receptor 1 (Homo sapiens, UniProt P17948), pIC50 recorded as 8.05

Record CCOC(=O)CN1CCN(C(=O)CN2CCN(C(=O)c3cc4nccc(Oc5ccc(NC(=O)Nc6cc(C)ccc6F)c(F)c5)c4s3)CC2)CC1 / Vascular endothelial growth factor receptor 1 (Homo sapiens, UniProt P17948), pIC50 recorded as 8.00

Record COc1cc(Nc2ncnc(-c3ccnc(NCCCO)c3)n2)cc(OC)c1OC / Vascular endothelial growth factor receptor 1 (Homo sapiens, UniProt P17948), pIC50 recorded as < 4.96

###

Ok so here's the combined literature set: IC50 for Vascular endothelial growth factor receptor 1 (Homo sapiens).

[[record]]
compound = "CS(=O)(=O)Nc1ccc(F)c(C(=O)c2c[nH]c3ncc(-c4cccnc4)cc23)c1F"
measured_endpoint = "IC50"
recorded_result = "≤ 10 µM"

[[record]]
compound = "CC(=O)c1cccc(Nc2ccnc3[nH]ccc23)c1"
measured_endpoint = "IC50"
recorded_result = "≤ 10 µM"

[[record]]
compound = "CCCS(=O)(=O)Nc1ccc(F)c(C(O)c2c[nH]c3ncc(-c4ccc(C(=O)NCC)nc4)cc23)c1F (stereo not shown)"
measured_endpoint = "IC50"
recorded_result = "≤ 10 µM"


The compound listed as O=C(c1ccccc1O)c1c[nH]c2ncc(-c3cccs3)cc12 has a reported IC50 of ≤ 10 µM

The compound listed as COc1cc(Nc2ncnc(N3c4ccc(F)cc4CCC3C)n2)cc(OC)c1OC (stereo not shown) has a reported IC50 of < 0.94 µM

The compound listed as CCN1CCC(Nc2ccc3c(c2)/C(=C(\c2ccc(F)cc2)c2nc4ccccc4[nH]2)C(=O)N3)CC1 has a reported IC50 of 0.05 to 0.5 µM

The compound listed as CCCCCCCCCCCCCCCCCCOc1ccc(CCC(=O)N(C)c2ccc(SC)c(C(=O)O)c2)cc1 has a reported IC50 of 0.28 µM

The compound listed as COc1ccc(Nc2nc3ccccc3n2-c2ncnc(Nc3cc(OC)c(OC)c(OC)c3)n2)cc1 has a reported IC50 of < 0.801 µM

The compound listed as COc1cc(Nc2ncnc(-n3c(N)nc4ccccc43)n2)cc(OC)c1OC has a reported IC50 of < 1.02 µM

###

Ok so here's the combined literature set: IC50 for Vascular endothelial growth factor receptor 1 (Homo sapiens).

[[record]]
compound = "COCCOc1ccc(F)c(C(=O)c2c[nH]c3ncc(OC)cc23)c1F"
target_or_system = "Vascular endothelial growth factor receptor 1 (Homo sapiens)"
recorded_result = "≤ 10 µM"

[[record]]
compound = "Nc1ccc(F)c(C(=O)c2c[nH]c3ncc(-c4ccccc4)cc23)c1"
target_or_system = "Vascular endothelial growth factor receptor 1 (Homo sapiens)"
recorded_result = "≤ 10 µM"

[[record]]
compound = "COc1cc(Nc2ncnc(-n3c(Nc4cc(C)n[nH]4)nc4ccccc43)n2)cc(OC)c1OC"
target_or_system = "Vascular endothelial growth factor receptor 1 (Homo sapiens)"
recorded_result = "< 0.845 µM"

[[record]]
compound = "COc1ccc(F)c(C(=O)c2c[nH]c3ncccc23)c1"
target_or_system = "Vascular endothelial growth factor receptor 1 (Homo sapiens)"
recorded_result = "≤ 10 µM"

[[record]]
compound = "COc1cc(Nc2ncnc(-n3c(NC(C)c4ccc(F)cc4)nc4ccccc43)n2)cc(OC)c1OC (stereo not shown)"
target_or_system = "Vascular endothelial growth factor receptor 1 (Homo sapiens)"
recorded_result = "0.776 to 4.66 µM"


The compound listed as Cc1c(NS(C)(=O)=O)cccc1C(=O)c1c[nH]c2ncc(Br)cc12 has a reported IC50 of ≤ 10 µM

The compound listed as COc1ccc(F)c(C(=O)c2c[nH]c3ncc(-c4cccs4)cc23)c1 has a reported IC50 of ≤ 10 µM
